B1: glmS ribozyme (parent)
chain: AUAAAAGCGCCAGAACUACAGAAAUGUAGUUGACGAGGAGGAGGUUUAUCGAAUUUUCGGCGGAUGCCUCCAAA

variants of: B1; test: self-cleavage kobs at 640 uM GlcN6P; higher = faster cleavage; RNA array; conditions: with glucosamine-6-phosphate
Variants at the floor of the assay were thinned out.
Provide the reported self-cleavage kobs at 640 uM GlcN6P of each item.
Use s⁻¹ as the unit, but write only the number.

# input // query self-cleavage kobs at 640 uM GlcN6P value for entry AUAAAAGCGCCAGAACUACAGAAAUGUAGCUGACGAGGAGGAGGUUAAUCGAAUUUUCGGCGGAUGCCUCCAAA [U30C U47A]
# output 5.72e-05

# input // query self-cleavage kobs at 640 uM GlcN6P value for entry AUAAAAGCGCCAGAACUACAGAAAUGUAGUUGACGAGGAGGAGAUUUAUCGAAUUAUCGGCGGAUGCCUCCAAA [G44A U56A]
# output 4.93e-05

# input // query self-cleavage kobs at 640 uM GlcN6P value for entry AUAAAAGCGCCAGCAAUACAGAAAUGUAGUUGACGAGGAGGAGGUUUAUCGAAUUUUCGGCGGAUGCCUCCAAA [A14C C16A]
# output 2.75e-05

# input // query self-cleavage kobs at 640 uM GlcN6P value for entry AUAAAAGCGCCAGAACUACAGAAAUGUAGUUGACGAGGUGGAGGUAUAUCGAAUUUUCGGCGGAUGCCUCCAAA [A39U U46A]
# output 0.000305

Where do the numbers come from? From the supplement of paper PMC7125110.
